Tested on: BDF1 mice, P388 leukemia ip, median survival T/C
test_description: NCI In Vivo Anticancer Drug Screen. Data for tumor model P388 Leukemia (intraperitoneal) in B6D2F1 (BDF1) mice
experimental_context: endpoint: median survival time; dose: 50.0 mg/kg/injection; schedule: Q01DX009 (ip); vehicle: saline with Tween-80
Inconclusive results and toxic doses are left out. Rule for the calls: active = survival T/C of 150% or more; inactive = T/C below 125% in these data.
The reply should be one of these categories: active, inactive

Name the outcome recorded for CN1C(=O)NNC(=O)c2ccccc21 in the assay.
inactive

Name the outcome recorded for CS(=O)(=O)CC(O)(c1ccccc1)c1cccs1 (stereo unspecified) in the assay.
inactive

Name the outcome recorded for Cc1ccc(S(=O)(=O)/C=C/c2ccccc2)cc1 in the assay.
inactive

Name the outcome recorded for CCC(=O)c1ccc(OCC(O)CN2CCC(O)(c3ccccc3)CC2)cc1 (stereo unspecified) in the assay.
inactive

Name the outcome recorded for Ic1ccccc1C[N+]12CN3CN(CN(C3)C1)C2 in the assay.
inactive

Name the outcome recorded for O=C1N(Br)C(=O)C(c2ccc(Cl)cc2)(c2ccc(Cl)cc2)N1Br in the assay.
active
